Measured values drawn from patent US20220242945A1 for this set.

Provide the recorded EC50 for the entries that follow.
# Test Target: T1, recombinant human IL-23 (human, UniProt Q9NPF7 20-189; P29460 23-328)
# T1 construct: Heterodimer of p19 and p40; also called hIL-23; interleukin-23; not shown: single C-terminal 6xHis tag
# T1 sequence 1: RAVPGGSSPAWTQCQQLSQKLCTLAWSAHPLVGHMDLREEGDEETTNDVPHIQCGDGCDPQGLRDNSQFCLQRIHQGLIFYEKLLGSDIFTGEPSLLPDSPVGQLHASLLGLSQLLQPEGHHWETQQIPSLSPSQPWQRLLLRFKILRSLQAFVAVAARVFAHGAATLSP
# T1 sequence 2: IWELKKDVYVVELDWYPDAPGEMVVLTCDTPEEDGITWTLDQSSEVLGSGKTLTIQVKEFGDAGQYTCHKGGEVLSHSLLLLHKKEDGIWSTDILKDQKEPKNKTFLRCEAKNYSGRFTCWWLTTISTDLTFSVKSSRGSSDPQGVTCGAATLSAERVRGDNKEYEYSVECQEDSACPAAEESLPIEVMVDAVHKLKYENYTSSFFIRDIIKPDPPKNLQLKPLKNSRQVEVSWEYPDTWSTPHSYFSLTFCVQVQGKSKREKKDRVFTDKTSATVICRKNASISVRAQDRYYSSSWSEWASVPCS
# Test Method Notes: IL-23-IL-23R neutralisation ELISA (Evaluation Method A): ICVD titrated with recombinant human IL-23, binding to coated IL-23R-Fc
Numbers only, in nM.

Please review the following examples before continuing.
{"columns": ["Binder", "EC50 [nM]"],
 "data": [
  ["12G1 (VHH, Purified primary clone made in E. coli; also called Family L ICVD 12G1; not shown: C-terminal FLAG and 6xHis tags from vector pMEK222) VHH: EVQLVESGGGLVQPGGSLRLSCAASVSIWSFKVMGWYRQVPGKQRELVATITTGGSPDYADSVKGRFTMSRDYDKRTVFLEMDSVKPEDAAVYYCNGRLWAHLTSSGHDVWGQGTRVTVSS", 0.387],
  ["1E2 (VHH, Purified primary clone made in E. coli; also called Family L ICVD 1E2; not shown: C-terminal FLAG and 6xHis tags from vector pMEK222) VHH: EVQLVESGGGLVQPGGSLRLSCAASVSIWSFKVMGWYRQVPGKQRELVATITTGGSPDYADSVKGRFTMSRDYDKRTVFLEMDSVKPEDAAVYYCNGRLWAHLTSSGHDVWGQGTQVTVSS", 0.546],
  ["10G10 (VHH, Purified primary clone made in E. coli; not shown: C-terminal FLAG and 6xHis tags from vector pMEK222) VHH: EVQLVESGGGLVQAGTSLRLSCAASGRTFSNYIMGWFRQAPGKEREFVAIITANGVATDYRDSVKGRFTISRDNARNTGYLEMNSLKPEDTAVYFCALRTRSGSLFDPGTFDYWGQGTQVTVSS", 1.47]
]}

Could you now consider this next binder?
Input line: What value of measured EC50 is listed for 10E2 (VHH, Purified primary clone made in E. coli; not shown: C-terminal FLAG and 6xHis tags from vector pMEK222) VHH: EVQLVESGGGLAQAGGSLRLSCAPSGRAFSGSAMGWFRQVPGKEREFVGVIIWTGGYTYYADSVKGRFTISRDSAKNTVYLQMDSLKPEDTAVYYCAARTPNSSWFPTTLYEYDYWGQGTQVTVSS ?
Output line: 1.45
